Taken from paper PMC8523698.

# ASSAYED_TARGET: CYP1A2 (Homo sapiens, UniProt P05177)
# Sequence (P05177 whole entry): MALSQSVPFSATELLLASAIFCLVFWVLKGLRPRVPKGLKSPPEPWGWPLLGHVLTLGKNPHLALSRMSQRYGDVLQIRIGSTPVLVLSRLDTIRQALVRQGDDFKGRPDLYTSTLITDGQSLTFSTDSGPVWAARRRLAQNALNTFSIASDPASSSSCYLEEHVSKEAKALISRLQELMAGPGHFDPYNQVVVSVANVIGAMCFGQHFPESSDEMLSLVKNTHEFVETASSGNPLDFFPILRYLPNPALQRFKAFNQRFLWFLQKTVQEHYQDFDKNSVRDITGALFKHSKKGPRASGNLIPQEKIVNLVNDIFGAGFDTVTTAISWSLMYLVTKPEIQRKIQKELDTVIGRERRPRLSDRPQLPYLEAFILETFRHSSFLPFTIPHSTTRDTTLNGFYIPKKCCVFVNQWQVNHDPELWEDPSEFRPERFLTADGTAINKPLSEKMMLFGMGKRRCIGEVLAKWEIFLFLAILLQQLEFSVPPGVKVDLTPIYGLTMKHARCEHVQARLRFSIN
# EXPERIMENT_NOTES: Reversible CYP inhibition in human liver microsomes
# CONDITION_INFO: human, microsomes, pH 7.4, Percent of Control Activity, CYP 1A2, 200 µM, Zero-Minute Preincubation
METRIC_NAME: activity at 200 µM (%)
Respond with the bare value in %.

INPUT: Endpoint output: activity at 200 µM of `COc1cccc2[nH]c(C(=O)N[C@@H](CC(C)C)C(=O)N[C@@H](C[C@@H]3CCNC3=O)C(=O)CO)cc12` . Value?
OUTPUT: 81.3

###

# ASSAYED_TARGET: CYP2C19 (Homo sapiens, UniProt P33261)
# Sequence (P33261 whole entry): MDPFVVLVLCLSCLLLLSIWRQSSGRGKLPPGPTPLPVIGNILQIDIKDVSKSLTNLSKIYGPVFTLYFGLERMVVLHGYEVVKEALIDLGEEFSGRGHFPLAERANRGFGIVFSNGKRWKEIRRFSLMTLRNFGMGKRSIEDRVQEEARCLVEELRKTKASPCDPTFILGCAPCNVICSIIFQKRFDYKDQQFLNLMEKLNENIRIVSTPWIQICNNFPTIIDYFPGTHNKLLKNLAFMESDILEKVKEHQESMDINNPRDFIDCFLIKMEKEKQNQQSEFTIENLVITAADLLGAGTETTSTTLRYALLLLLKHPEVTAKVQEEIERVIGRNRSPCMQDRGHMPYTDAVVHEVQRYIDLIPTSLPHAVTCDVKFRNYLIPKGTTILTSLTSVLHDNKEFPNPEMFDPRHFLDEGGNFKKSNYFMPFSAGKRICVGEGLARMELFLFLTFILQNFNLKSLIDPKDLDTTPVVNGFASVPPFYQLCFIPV
# EXPERIMENT_NOTES: Reversible CYP inhibition in human liver microsomes
# CONDITION_INFO: human, microsomes, pH 7.4, Percent of Control Activity, CYP 2C19, 0.979 µM, Zero-Minute Preincubation
METRIC_NAME: activity at 0.979 µM (%)
Respond with the bare value in %.

INPUT: Notebook entry, CYP2C19 (Homo sapiens, UniProt P33261) assay: activity at 0.979 µM of `COc1cccc2[nH]c(C(=O)N[C@@H](CC(C)C)C(=O)N[C@@H](C[C@@H]3CCNC3=O)C(=O)CO)cc12` = ?
OUTPUT: 81.3
